system: BRSK2; conditions: concentration: 1 μM, replicates: in singlicate; n = 1;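 also: KINOMEscan kinase panel screen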
Entries annotated with measured %Inh
Readout Label: %Inh

INSERT INTO measurements (compound, target_of_assay, readout_label, meas_value) VALUES
  ('Cc1cnc(N)c(/C=C/c2cncc(C(=O)NCCc3ccc(Cl)cc3Cl)c2)c1.Cl', 'BRSK2', '%Inh', '0%'),
  ('COc1ccc(Nc2nccc(N3CCC(NC(=O)C(C)c4ccc(Cl)cc4)CC3)n2)cc1 (centres unmarked)', 'BRSK2', '%Inh', '13%'),
  ('Cc1c(Cn2c(C)c(C)n3c(=O)cc(N4CCOCC4)nc23)cccc1C(F)(F)F', 'BRSK2', '%Inh', '0%'),
  ('CC(=O)c1cccc(NC(=O)NC2CCN(c3ccnc(Nc4ccc(F)cc4)n3)C2)c1 (centres unmarked)', 'BRSK2', '%Inh', '0%'),
  ('CC(=O)c1c(C)c2cnc(Nc3ccn(C)n3)nc2n(C2CCCC2)c1=O', 'BRSK2', '%Inh', '0%'),
  ('CNc1nc(-c2ccc3c(N)n[nH]c3c2)cc(N2C[C@@H](C(=O)NC3CCCCC3)OC[C@H]2C)n1', 'BRSK2', '%Inh', '19%'),
  ('Cn1cncc1C(=O)NC1CCN(c2ccnc(Nc3ccc(F)cc3)n2)C1 (centres unmarked)', 'BRSK2', '%Inh', '0%'),
  ('O=C(Nc1n[nH]c2nc(-c3cccs3)c(Br)cc12)C1CC1', 'BRSK2', '%Inh', '53%');

###

test system: WEE2; settings: concentration: 1 μM, replicates: in singlicate; n = 1
Readout Label: %Inh

INSERT INTO assay_data (compound, readout_label, meas_value) VALUES
  ('FC(F)(F)c1ccccc1-c1cc(-c2c[nH]nc2-c2ccccn2)ccn1', '%Inh', '5%'),
  ('CNc1nc(-c2ccc3c(N)n[nH]c3c2)cc(N2C[C@@H](C(=O)Nc3ccccc3)CC[C@H]2C)n1', '%Inh', '0%'),
  ('COc1ccc(Nc2nccc(N3CCC(NC(=O)C(C)c4ccc(Cl)cc4)C3)n2)cc1 (stereo not shown)', '%Inh', '0%'),
  ('O=c1cc(N2CCOCC2)nc2n(Cc3cccc(Cl)c3Cl)c3ccccc3n12', '%Inh', '17%');

###

test system: ABL1-phosphorylated; settings: concentration: 1 μM, replicates: in singlicate; n = 1
Readout Label: %Inh (%)

INSERT INTO assay_data (molecule, target_of_assay, meas_value) VALUES
  ('O=C(Nc1n[nH]c2nc(-c3ccco3)c(Br)cc12)C1CCN(Cc2ccccc2)C1.O=C(O)[C@H](O)[C@@H](O)C(=O)O (centres unmarked)', 'ABL1-phosphorylated', 23),
  ('COc1ccc(Nc2nccc(NCCNC(=O)Nc3cc(C)ccc3C)n2)cc1', 'ABL1-phosphorylated', 0),
  ('O=C1NC(=O)C(c2ccc(Cl)cc2)=C1Nc1cccc(Cl)c1', 'ABL1-phosphorylated', 0),
  ('CC(=O)c1c(C)c2cnc(Nc3ccc(N4CCNCC4)cn3)nc2n(C2CCCC2)c1=O', 'ABL1-phosphorylated', 0),
  ('CNc1cc(-c2ccc3c(N)n[nH]c3c2)nc(N)n1', 'ABL1-phosphorylated', 0),
  ('COC(=O)C(Cc1ccccc1)NC(=O)NC1CCN(c2ccnc(Nc3ccc(F)cc3)n2)C1 (centres unmarked)', 'ABL1-phosphorylated', 0),
  ('COc1ccc(CSc2nnc(-c3ccc4ncsc4c3)o2)cc1C(F)(F)F', 'ABL1-phosphorylated', 8),
  ('COc1ccc(Nc2nccc(N3CCC(NC(=O)c4cc5ccccc5s4)C3)n2)cc1 (centres unmarked)', 'ABL1-phosphorylated', 0);

###

tested on: NEK1; settings: concentration: 1 μM, replicates: in singlicate; n = 1
Readout Label: %Inh

INSERT INTO measurements (compound, readout_label, meas_value) VALUES
  ('Cc1nccc(-c2c(-c3ccc(F)cc3)ncn2CCCN2CCOCC2)n1.Cl', '%Inh', '0%'),
  ('O=C(Nc1n[nH]c2nc(-c3ccco3)c(Br)cc12)C1CCN(Cc2ccccc2)C1.O=C(O)[C@H](O)[C@@H](O)C(=O)O (stereo not drawn)', '%Inh', '0%'),
  ('COc1ccc(CSc2nnc(-c3ccc4ncsc4c3)o2)cc1C(F)(F)F', '%Inh', '10%'),
  ('Nc1nccc(-c2c(-c3ccc(F)cc3)ncn2C2CCN(Cc3ccccc3)CC2)n1', '%Inh', '0%'),
  ('COc1ccc(Nc2nccc(-c3ccc(NC(=O)c4cc5cc(F)ccc5[nH]4)cc3)n2)cc1', '%Inh', '0%'),
  ('Cn1cnc2c(N)ncnc21', '%Inh', '0%'),
  ('Cc1ccc(NC(=O)Nc2ccccc2)cc1-c1ccc(C(=O)Nc2ccncc2)cc1', '%Inh', '15%'),
  ('CC(C)c1cc(-c2ccc3c(N)n[nH]c3c2)nc(N)n1', '%Inh', '0%'),
  ('CNc1nc(-c2ccc3c(N)n[nH]c3c2)cc(N2C[C@@H](C(=O)NC3CCCCC3)OC[C@H]2C)n1', '%Inh', '2%'),
  ('CC(=O)c1c(C)c2cnc(Nc3ccn(C)n3)nc2n(C2CCCC2)c1=O', '%Inh', '0%'),
  ('CN1c2ccc(-c3ccc(C(N)=O)cc3)cc2-c2[nH]ncc2S1(=O)=O', '%Inh', '0%'),
  ('COC(=O)C(NC(=O)NC1CCN(c2ccnc(Nc3ccc(F)cc3)n2)C1)c1ccccc1 (stereo not drawn)', '%Inh', '2%'),
  ('COc1ccc(Nc2nccc(N3CCC(NC(=O)c4cc5ccccc5s4)C3)n2)cc1 (stereo not drawn)', '%Inh', '2%'),
  ('CSc1ccc(-c2nc3n(c2-c2ccncc2)CCC3)cc1', '%Inh', '0%'),
  ('COc1cccc(C2=C(Nc3cc(Cl)c(O)c(Cl)c3)C(=O)NC2=O)c1', '%Inh', '0%'),
  ('CC[C@@H]1CO[C@H](C(=O)Nc2ccccc2)CN1c1cc(-c2ccc3c(N)n[nH]c3c2)nc(NC)n1', '%Inh', '0%'),
  ('CS(=O)(=O)Cc1ccc(Nc2nccc(-c3c(-c4cccc(NC(=O)C5CCCCC5)c4)nn4ncccc34)n2)cc1', '%Inh', '0%'),
  ('Cc1ccc(NC(=O)c2ccc(Cl)cc2)cc1-c1ccc(C(=O)Nc2ccncc2)cc1', '%Inh', '0%'),
  ('COc1ccc(-c2coc3ccc(-c4nnc(C)o4)cc23)cc1', '%Inh', '0%'),
  ('Cn1cncc1C(=O)NC1CCN(c2ccnc(Nc3ccc(F)cc3)n2)C1 (stereo not drawn)', '%Inh', '0%'),
  ('O=c1cc(N2CCOCC2)nc2n(Cc3cccc(Cl)c3Cl)c3ccccc3n12', '%Inh', '0%'),
  ('COc1cc2ncnc(Nc3cccc(Br)c3)c2cc1OC.Cl', '%Inh', '0%'),
  ('Cc1ccc(-c2nc(Nc3ccncc3)c3ccccc3n2)s1', '%Inh', '0%'),
  ('O=C1NC(=O)C(c2ccc(Cl)cc2)=C1Nc1cccc(Cl)c1', '%Inh', '0%'),
  ('O=C(Nc1n[nH]c2cc(-c3ccsc3)ccc12)C1CC1', '%Inh', '0%'),
  ('CCc1ccc(-c2ccc3c(c2)-c2n[nH]cc2S(=O)(=O)N3C)cc1', '%Inh', '0%'),
  ('COc1cccc(NC(=O)Nc2ccc(C)c(-c3ccc(C(=O)Nc4ccncc4)cc3)c2)c1', '%Inh', '25%'),
  ('c1ccc(-c2ccnc3[nH]ccc23)cc1', '%Inh', '0%'),
  ('CC(C)c1ccc(O)cc1Nc1ccnc2ccc(C(F)(F)F)cc12', '%Inh', '0%'),
  ('Cc1ccccc1-c1cc(-c2c[nH]nc2-c2ccccn2)ccn1', '%Inh', '0%'),
  ('CCn1c(-c2c(N)noc2C)nc2cnccc21', '%Inh', '73%'),
  ('COC(=O)c1cccc(NC(=O)NC2CCN(c3ccnc(Nc4ccc(OC)cc4)n3)C2)c1 (stereo not drawn)', '%Inh', '0%'),
  ('NS(=O)(=O)c1cccc(N/C=C2\C(=O)Nc3ccc(S(=O)(=O)Cc4c(Cl)cccc4Cl)cc32)c1', '%Inh', '10%'),
  ('Cn1cncc1-c1cc2c(Nc3ccc(OCc4ccccc4)cc3)ncnc2cn1', '%Inh', '0%'),
  ('Cc1ccc(NC(=O)Nc2ccc(Cl)c(C(F)(F)F)c2)cc1-c1ccc(C(=O)Nc2ccncc2)cc1', '%Inh', '0%'),
  ('Nc1cccc(-c2ccc3c(N)n[nH]c3c2)n1', '%Inh', '18%'),
  ('Cc1ccccc1Cn1ccn2c(=O)cc(N3CCOCC3)nc12', '%Inh', '0%'),
  ('O=C(Nc1n[nH]c2nc(-c3cccs3)c(Br)cc12)C1CCCC1', '%Inh', '0%'),
  ('FC(F)(F)c1ccccc1-c1cc(-c2c[nH]nc2-c2ccccn2)ccn1', '%Inh', '0%');
